// reported cell viability for each item listed
# Tested on: NOMO1
# assay: cell viability relative to DMSO control; higher = less cytotoxic
# test.conditions: HPLM + 10% dialyzed FBS; 48 h; 0.19 µM
observed.property: cell viability (%)

>  <compound>
Cc1cccc2c1CC[C@H](CN1CCC(c3c(Cl)cccc3Cl)CC1)C[C@@H]2O

>  <numeric.result>
154

$$$$
>  <compound>
CN(C(Cc1ccc(O[S+](=O)([O-])c2cccc3cnccc23)cc1)C(=O)N1CCN(c2ccccc2)CC1)[S+](=O)([O-])c1cccc2cnccc12 (centres undefined)

>  <numeric.result>
120

$$$$
>  <compound>
Cc1c(C(=O)c2cccc3ccccc23)c2cccc3c2n1[C@H](CN1CCOCC1)CO3

>  <numeric.result>
91

$$$$
>  <compound>
C=CC(=O)Nc1ccc2ncnc(Nc3ccc(OCc4cccc(F)c4)c(Cl)c3)c2c1

>  <numeric.result>
99.4

$$$$
>  <compound>
Oc1ccc([C@@H]2Oc3ccc(O)cc3[C@@H]3CCC[C@@H]32)cc1

>  <numeric.result>
89.3

$$$$
>  <compound>
CCN(CC)CCCC(C)Nc1nc(C)cc(Nc2ccc3nc(C)cc(N)c3c2)n1 (centres undefined)

>  <numeric.result>
125

$$$$
>  <compound>
CC(C)CC(N(C)C)C1(c2ccc(Cl)cc2)CCC1 (centres undefined)

>  <numeric.result>
117

$$$$
>  <compound>
CC(C)(O)C(=O)Nc1ccc([N+](=O)[O-])c(C(F)(F)F)c1

>  <numeric.result>
135

$$$$
>  <compound>
Cn1cnc([N+](=O)[O-])c1Sc1ncnc2nc[nH]c12

>  <numeric.result>
93.9

$$$$
>  <compound>
CC(C)c1c(C(=O)Nc2ccccc2)c(-c2ccccc2)c(-c2ccc(F)cc2)n1CC[C@@H](O)C[C@@H](O)CC(=O)[O-]

>  <numeric.result>
97.4

$$$$
>  <compound>
CC(S)C(=O)NCC(=O)O (centres undefined)

>  <numeric.result>
123

$$$$
>  <compound>
Cc1cnc(Nc2ccc(N3CCN(C)CC3)cc2)nc1Nc1cccc([S+](=O)([O-])NC(C)(C)C)c1

>  <numeric.result>
120

$$$$
>  <compound>
CC[C@H]1CN2CCc3cc(OC)c(OC)cc3[C@@H]2C[C@@H]1C[C@H]1NCCc2cc(OC)c(OC)cc21

>  <numeric.result>
98.5

$$$$
>  <compound>
Nc1ccc([S+](=O)([O-])Nc2ncccn2)cc1

>  <numeric.result>
127

$$$$
>  <compound>
O=C(NCc1ccccc1)c1csc(Nc2ccncn2)n1

>  <numeric.result>
97.3

$$$$
>  <compound>
COc1cc(Cl)cn2c(-c3cccc(NC4CNC4)n3)cnc12

>  <numeric.result>
148

$$$$
>  <compound>
CCOCC(O)COc1ccc(NC(=O)CC[S+](C)C)cc1 (centres undefined)

>  <numeric.result>
92.4

$$$$
>  <compound>
NCCc1ccc(O)c(O)c1

>  <numeric.result>
112

$$$$
>  <compound>
CC[C@@H]1C(=O)N(C)c2cnc(Nc3ccc(C(=O)NC4CCN(C)CC4)cc3OC)nc2N1C1CCCC1

>  <numeric.result>
43.7

$$$$

----------
# System: SEM cells
# assay: cell viability relative to DMSO control; higher = less cytotoxic
# test.conditions: RPMI 5 mM glucose + 10% FBS; 48 h; 0.0632 µM
// reported cell viability for each item listed
observed.property: cell viability (%)

>  <compound>
OCCN(CCO)c1nc(N2CCCCC2)c2nc(N(CCO)CCO)nc(N3CCCCC3)c2n1

>  <observed.property>
cell viability

>  <quantity.unit>
%

>  <numeric.result>
127

$$$$
>  <compound>
NNc1nncc2ccccc12

>  <observed.property>
cell viability

>  <quantity.unit>
%

>  <numeric.result>
152

$$$$
>  <compound>
C[C@]\12CCC(=O)\C=C1[C@@H]3C[C@@H]3[C@@H]4[C@@H]2CC[C@@]5(C)[C@H]4[C@@H]6C[C@@H]6[C@@]57CCC(=O)O7

>  <observed.property>
cell viability

>  <quantity.unit>
%

>  <numeric.result>
137

$$$$
>  <compound>
O=C1CCCC(=O)C1C(=O)c1ccc(C(F)(F)F)cc1[N+](=O)[O-]

>  <observed.property>
cell viability

>  <quantity.unit>
%

>  <numeric.result>
109

$$$$
>  <compound>
O=C(NCc1ccccc1)c1csc(Nc2ccncn2)n1

>  <observed.property>
cell viability

>  <quantity.unit>
%

>  <numeric.result>
108

$$$$
>  <compound>
CN(C)CCc1c[nH]c2ccc(C[S+](=O)([O-])N3CCCC3)cc12

>  <observed.property>
cell viability

>  <quantity.unit>
%

>  <numeric.result>
101

$$$$
>  <compound>
OC[C@H]1OC(OC2=CC3=C(C(=C2)O)C(=O)\C(=C/O3)C4=CC=C(O)C=C4)[C@H](O)[C@@H](O)[C@@H]1O (some centres not stated)

>  <observed.property>
cell viability

>  <quantity.unit>
%

>  <numeric.result>
117

$$$$

----------
// reported cell viability for each item listed
# Tested on: SEM cells
# assay: cell viability relative to DMSO control; higher = less cytotoxic
# test.conditions: RPMI 5 mM glucose + 10% FBS; 48 h; 0.000781 µM
observed.property: cell viability (%)

>  <molecule>
Cc1ccc(-c2cc(C(F)(F)F)nn2-c2ccc([S+](N)(=O)[O-])cc2)cc1

>  <numeric.result>
84.8

$$$$
>  <molecule>
CCN(CC)CCCC(C)Nc1nc(C)cc(Nc2ccc3nc(C)cc(N)c3c2)n1 (stereo not drawn)

>  <numeric.result>
75.2

$$$$
>  <molecule>
Clc1ccc2ncc(-c3cccc(NC4CNC4)n3)n2c1

>  <numeric.result>
119

$$$$
>  <molecule>
C[C@]\12CCC(=O)\C=C1[C@@H]3C[C@@H]3[C@@H]4[C@@H]2CC[C@@]5(C)[C@H]4[C@@H]6C[C@@H]6[C@@]57CCC(=O)O7

>  <numeric.result>
98.6

$$$$
>  <molecule>
N=C(N)NC(=N)N1CCOCC1

>  <numeric.result>
94

$$$$
>  <molecule>
C1COC(NC(C2CC2)C2CC2)=N1

>  <numeric.result>
72.5

$$$$
>  <molecule>
COC(=O)C/1=C(C)/N/C(=C(\C1C2=CC(=CC=C2)[N+]([O-])=O)C(=O)OCCCN3CCC(CC3)(C4=CC=CC=C4)C5=CC=CC=C5)C (stereo not drawn)

>  <numeric.result>
93.4

$$$$
>  <molecule>
Nc1ccc([S+](=O)([O-])Nc2ncccn2)cc1

>  <numeric.result>
110

$$$$
>  <molecule>
C[C@H](NCc1ccc(OCc2cccc(F)c2)cc1)C(N)=O

>  <numeric.result>
102

$$$$
>  <molecule>
CCOC(=O)O[C@]1(C(=O)OCCl)CC[C@H]2[C@@H]3CCC4=CC(=O)C=C[C@]4(C)[C@H]3[C@@H](O)C[C@@]21C

>  <numeric.result>
82.9

$$$$
>  <molecule>
CC(C)(C)OC(=O)Nc1ccc(-c2cc(C(=O)NCCCCCCC(=O)NO)no2)cc1

>  <numeric.result>
94.9

$$$$
>  <molecule>
CC[C@@H]1C(=O)N(C)c2cnc(Nc3ccc(C(=O)NC4CCN(C)CC4)cc3OC)nc2N1C1CCCC1

>  <numeric.result>
104

$$$$
>  <molecule>
Cc1cnc(Nc2ccc(N3CCN(C)CC3)cc2)nc1Nc1cccc([S+](=O)([O-])NC(C)(C)C)c1

>  <numeric.result>
116

$$$$
>  <molecule>
O=C1N\C=N/C2=C1C=N[NH]2

>  <numeric.result>
70.2

$$$$
>  <molecule>
OC[C@H]1OC(OC2=CC3=C(C(=C2)O)C(=O)\C(=C/O3)C4=CC=C(O)C=C4)[C@H](O)[C@@H](O)[C@@H]1O (stereo partly drawn)

>  <numeric.result>
97.9

$$$$
>  <molecule>
Cc1ccc([S+](=O)([O-])Nc2cc(Cl)ccc2C(=O)Nc2nc(-c3ccccc3)cs2)cc1

>  <numeric.result>
127

$$$$
>  <molecule>
COc1ccc(C2(C#N)CCC(C(=O)O)CC2)cc1OC1CCCC1 (stereo not drawn)

>  <numeric.result>
77.3

$$$$
>  <molecule>
Oc1ccc([C@@H]2Oc3ccc(O)cc3[C@@H]3CCC[C@@H]32)cc1

>  <numeric.result>
60.6

$$$$

----------
# System: NOMO1
# assay: cell viability relative to DMSO control; higher = less cytotoxic
# test.conditions: RPMI 5 mM glucose + 10% FBS; 48 h; 46.1 µM

>  <molecule>
CCCCCN(CCC12CC3CC(CC(C3)C1)C2)C(=O)NCCCc1ccncc1

>  <cell viability, %>
98.4

$$$$
>  <molecule>
Cc1ccc(-c2cc(C(F)(F)F)nn2-c2ccc([S+](N)(=O)[O-])cc2)cc1

>  <cell viability, %>
103

$$$$
>  <molecule>
CN(C(Cc1ccc(O[S+](=O)([O-])c2cccc3cnccc23)cc1)C(=O)N1CCN(c2ccccc2)CC1)[S+](=O)([O-])c1cccc2cnccc12 (configuration not stated)

>  <cell viability, %>
66.3

$$$$
>  <molecule>
COc1ccc([S+](=O)([O-])Nc2cccnc2Nc2ccc(O)cc2)cc1

>  <cell viability, %>
29.4

$$$$
>  <molecule>
COC(=O)C/1=C(C)/N/C(=C(\C1C2=CC(=CC=C2)[N+]([O-])=O)C(=O)OCCCN3CCC(CC3)(C4=CC=CC=C4)C5=CC=CC=C5)C (configuration not stated)

>  <cell viability, %>
81.8

$$$$
>  <molecule>
O=C(NCc1ccccc1)c1csc(Nc2ccncn2)n1

>  <cell viability, %>
3.15

$$$$
>  <molecule>
N#Cc1ccc(NC(=O)Nc2ccccc2Br)c2nn[nH]c12

>  <cell viability, %>
119

$$$$
>  <molecule>
NC[C@H]1O[C@H](O[C@H]2[C@H](O)[C@@H](O[C@H]3O[C@H](CO)[C@@H](O)[C@H](N)[C@H]3O)[C@H](N)C[C@@H]2N)[C@H](N)C[C@@H]1O

>  <cell viability, %>
107

$$$$
>  <molecule>
Cc1cnc(Nc2ccc(CN3CCOCC3)cc2)nc1Nc1cccc([S+](=O)([O-])NC(C)(C)C)c1

>  <cell viability, %>
7.72

$$$$
>  <molecule>
O=C1CCCC(=O)C1C(=O)c1ccc(C(F)(F)F)cc1[N+](=O)[O-]

>  <cell viability, %>
92.8

$$$$
>  <molecule>
N=C(N)Nc1ccc(C(=O)Oc2ccc3cc(C(=N)N)ccc3c2)cc1

>  <cell viability, %>
50.6

$$$$
>  <molecule>
Nc1ccn([C@H]2CS[C@@H](CO)O2)c(=O)n1

>  <cell viability, %>
145

$$$$
>  <molecule>
CCN(CC)CCCC(C)Nc1nc(C)cc(Nc2ccc3nc(C)cc(N)c3c2)n1 (configuration not stated)

>  <cell viability, %>
111

$$$$
>  <molecule>
Cc1nc(N)ncc1-c1nc(N2CCOCC2)c2sc(C(C)(C)O)cc2n1

>  <cell viability, %>
9.89

$$$$
>  <molecule>
Cc1cnc(Nc2ccc(N3CCN(C)CC3)cc2)nc1Nc1cccc([S+](=O)([O-])NC(C)(C)C)c1

>  <cell viability, %>
15.2

$$$$
>  <molecule>
N#CC[C@H](C1CCCC1)n1cc(-c2ncnc3[nH]ccc23)cn1

>  <cell viability, %>
14.8

$$$$
>  <molecule>
C1CN\2C[C@@H](\N=C2S1)C3=CC=CC=C3

>  <cell viability, %>
103

$$$$
